Test system: Shigella sonnei
Assay: Antibacterial activity against Shigella sonnei after 8 to 12 hrs by colorimetric microdilution broth technique
Format: functional
Reported MIC values for a set of compounds
Report only the number, with the unit µg/mL understood.

- Given smiles: "CN(C)c1ccc(/C=C/c2ccc3ccccc3[n+]2C)cc1.Cc1ccc(S(=O)(=O)[O-])cc1"
  MIC / µg/mL: 2.34
- Given smiles: "CCOc1ccc(/C=C/c2cccc[n+]2C)cc1.Cc1ccc(S(=O)(=O)[O-])cc1"
  MIC / µg/mL: 150
- Given smiles: "CCOc1ccc(/C=C/c2ccc3ccccc3[n+]2C)cc1.COc1ccc(S(=O)(=O)[O-])cc1"
  MIC / µg/mL: 150
- Given smiles: "CCOc1ccc(/C=C/c2ccc3ccccc3[n+]2C)cc1.Cc1ccc(S(=O)(=O)[O-])cc1"
  MIC / µg/mL: 150

input: Name the reported MIC value associated with the compound `CN(C)c1ccc(/C=C/c2cccc[n+]2C)cc1.Cc1ccc(S(=O)(=O)[O-])cc1`
output: 300

input: Query `CCOc1ccc(/C=C/c2ccc3ccccc3[n+]2C)cc1.O=S(=O)([O-])c1ccc(Br)cc1` next
output: 75

input: Next compound: `CN(C)c1ccc(/C=C/c2ccc3ccccc3[n+]2C)cc1.[I-]`
output: 4.68

input: Do the same for `CN(C)c1ccc(/C=C/c2ccc3ccccc3[n+]2C)cc1.O=S(=O)([O-])c1ccc(Cl)cc1` please
output: 2.34

input: Lookup `CN(C)c1ccc(/C=C/c2ccc3ccccc3[n+]2C)cc1.Nc1ccc(S(=O)(=O)[O-])cc1`
output: 75
